{"Compound": "O=C(C=C(c1ccccc1)c1ccccc1)Nc1ccc(C(=O)O)cc1", "melting point": "222 to 224 °C"}
{"Compound": "CCOC(=O)c1cnc2c(OC)cccc2c1Nc1ccc(O)cc1C", "melting point": "277 to 279 °C"}
{"Compound": "N#CCNC(=O)C1(NC(=O)c2ccc(N3CCN(Cc4ccccc4)CC3)cc2)CCCCC1", "melting point": "210 to 212 °C"}
{"Compound": "CC(=O)c1ccc(C2C(C(=O)c3ccc(C(C)C)cc3)=C(O)C(=O)N2c2ccc(C)nn2)cc1 (centres undefined)", "melting point": "259 to 266 °C"}
{"Compound": "COc1ccc(-c2nnc3c4ccccc4c(N(C)CCCCl)nn23)cc1", "melting point": "113 to 115 °C"}
{"Compound": "CON=C(c1nnn[nH]1)c1ccccc1COc1cc(C)ccc1C", "melting point": "168 to 170 °C"}
{"Compound": "CCN(CC1CCN(C(=O)NC)CC1)C(C)Cc1ccc(OC)cc1 (centres undefined)", "melting point": "97 to 98 °C"}
{"Compound": "N#Cc1cnn(-c2c(Cl)cc(C(F)(F)F)c(Cl)c2Cl)c1N", "melting point": "186 to 187 °C"}
{"Compound": "CC(C)(C)c1cc(CNc2cccc(Br)c2CO)c(C(=O)O)s1", "melting point": "68 to 69 °C"}

* * *

Listing of entries alongside the reported melting point.

{"Compound": "CCCSc1sc(C(=O)O)c2c1-c1c(cnn1C)CC2", "melting point": "216 to 217 °C"}
{"Compound": "CC(C)(O)CNC(=O)c1cccc(-c2cccc3cc(Cc4cc(F)cc(Cl)c4)sc23)c1", "melting point": "123 °C"}
{"Compound": "CC(C)(C#N)c1cc(Cn2cnnc2)cc(C(C)(C)C#N)c1", "melting point": "158 to 161 °C"}
{"Compound": "COc1c(CC(C(=O)O)C(=O)O)cccc1C(=O)c1ccc(Cl)cc1", "melting point": "142 °C"}
{"Compound": "O=C(Nc1cccc(-c2ccnc3c(C(=O)c4cccs4)cnn23)c1)c1c(Cl)cccc1Cl", "melting point": "245 to 246 °C"}
{"Compound": "CN(C)c1cccc(-c2cnc3[nH]cc(C(=O)C(C)(C)C)c3n2)c1", "melting point": "223 to 228 °C"}
{"Compound": "CN(C)/C=C/C(=O)c1ccc(OCCCCN2C(=O)c3ccccc3C2=O)cc1", "melting point": "109 to 111 °C"}
{"Compound": "CCCCCCCCCCCCCCOc1ccc(CNc2ccccc2CO)cc1", "melting point": "72 to 75 °C"}
{"Compound": "CC(NC(=O)c1cccnc1Oc1cccnc1)c1ccc(Cl)s1 (single isomer, unassigned; (+))", "melting point": "83 to 85 °C"}
{"Compound": "CC1(C)CCc2c(-c3ccoc3)nc3sc4c(NCc5ccncc5)ncnc4c3c2C1", "melting point": "265 to 266 °C"}
{"Compound": "O=C(NCc1cncs1)c1ccnc(N2CCN(Cc3ccc(F)cc3)C2=O)c1", "melting point": "148 to 150 °C"}
{"Compound": "O=c1[nH]c2cc(Cl)ccc2c(O)c1-c1cccc(Cl)c1", "melting point": "> 300 °C"}
{"Compound": "CC(C)(C)c1cc(SC2CC(=O)N(c3ccccc3N3C(=O)CC(Sc4cc(C(C)(C)C)c(O)c(C(C)(C)C)c4)C3=O)C2=O)cc(C(C)(C)C)c1O (centres undefined)", "melting point": "128 to 133 °C"}
{"Compound": "Cc1ccc(N2CN(C)CNC2=S)c(C)c1", "melting point": "140 to 143 °C"}
{"Compound": "CCOC(=O)CCc1ccc(O)c(OCc2ccccc2)c1", "melting point": "60 to 61 °C"}
{"Compound": "O=C1c2cc(CCCCOC(=O)C(F)(F)F)ccc2OCc2sccc21", "melting point": "65.5 to 67.5 °C"}
{"Compound": "C=CCN(CC=C)c1ccc(NCCO)cc1[N+](=O)[O-]", "melting point": "166 to 170 °C"}
{"Compound": "COC(=O)c1cc(S(C)(=O)=O)ccc1OCc1ccccn1", "melting point": "189 to 192 °C"}
{"Compound": "CCn1cc(C(N)=O)c(=O)c2ccc(-c3ccccn3)cc21", "melting point": "245 to 246 °C"}

* * *

{"Compound": "Cn1c(CO)nc2cncnc21", "melting point": "122 to 125 °C"}
{"Compound": "Clc1cc2c(s1)-n1c(nnc1CN1CCOCC1)CN=C2c1ccccc1Cl", "melting point": "224 to 226 °C"}
{"Compound": "CNC(=O)CC1N=C(C2CCCCC2)c2c(sc(C)c2C)-n2c(C)nnc21 (stereo not given)", "melting point": "228 to 231 °C"}
{"Compound": "CN(C)c1ccc(-c2nnc(-c3ccccc3)o2)cc1", "melting point": "135 to 140 °C"}
{"Compound": "Cc1cc(C)c2c(n1)N(CCN1CCOCC1)c1ccccc1N(C)C2=O", "melting point": "133 to 135 °C"}
{"Compound": "Cc1c(NC(=O)CC(CSC(=O)COc2ccccc2)c2ccccc2)cccc1C(=O)O (stereo not given)", "melting point": "130 to 132 °C"}
{"Compound": "Cc1cccc(-c2nnnn2C)c1S(N)(=O)=O", "melting point": "140 to 161 °C"}
{"Compound": "CCC(NC(C)=O)c1ccc(CN2CCN(c3ccccc3)CC2)cc1 (stereo not given)", "melting point": "109 to 110 °C"}
{"Compound": "O=C1CCN(C2c3ccccc3C=Cc3ccccc32)CC1C(c1ccccc1)c1ccccc1 (stereo not given)", "melting point": "175 to 178 °C"}
{"Compound": "COc1c(Cl)ccc(-c2nc(C(=O)NOC3CCCCO3)c(Cl)c(N)c2F)c1F (stereo not given)", "melting point": "177 to 180 °C"}

* * *

Listing of entries alongside the reported melting point.

{"Molecule": "CCOC(=O)c1ccc(C(=O)OCC)c2cc3ccccc3cc12", "melting point": "99 to 100 °C"}
{"Molecule": "CCOC(=O)N1C(=NC#N)NC(C)=C(C(=O)OC)C1c1cccc(Cl)c1Cl (stereo unspecified)", "melting point": "176 to 178 °C"}
{"Molecule": "Nc1ccccc1Oc1ccc2c(c1)C(=O)NC2=O", "melting point": "212 °C"}
{"Molecule": "NC(=O)CN1CC2CCCCCC2C1=O (stereo unspecified)", "melting point": "145 to 147 °C"}
{"Molecule": "COc1cc(-c2sc3nc(N)[nH]c(=O)c3c2C)ccc1Cl", "melting point": "312 to 322 °C"}
{"Molecule": "CN(C)C=C(C(=O)OC(C)(C)C)C(=O)c1ccccc1Cl", "melting point": "97 to 99 °C"}
{"Molecule": "CC(=O)c1nc(Cl)ccc1N", "melting point": "108 to 110 °C"}
{"Molecule": "O=c1[nH]ncc2c(O)cccc12", "melting point": "351 to 355 °C"}
{"Molecule": "C[C@H](O)[C@@H](COc1ccc(Cl)c(Cl)c1)n1cnc(C(N)=O)c1", "melting point": "115 to 121 °C"}
{"Molecule": "Cc1ccc(S(=O)(=O)OCCC2COc3ccccc3C2)cc1 (stereo unspecified)", "melting point": "91 to 93 °C"}
{"Molecule": "COC(=O)c1cc(Br)ncc1F", "melting point": "43 to 46 °C"}

* * *

Listing of entries alongside the reported melting point.

{"Compound": "C[C@H]1CN(Cc2ccccc2)C[C@H]1NC(=O)OC(C)(C)C (relative stereo)", "melting point": "132 to 133 °C"}
{"Compound": "O=C(Oc1ccc(OC(=O)c2ccccc2)c(-c2ccccc2)c1)c1cc(O)c(O)c(O)c1", "melting point": "82 to 84 °C"}
{"Compound": "CCCCCCCCOc1ccc(C(=O)COC(C)=O)cc1", "melting point": "44 to 45 °C"}
{"Compound": "CNC(=N[N+](=O)[O-])NCc1cnc(Br)s1", "melting point": "170 °C"}
{"Compound": "COCOc1ccc2cc(C=O)ccc2c1", "melting point": "52 to 54 °C"}
{"Compound": "N#Cc1cccc2nc(N[C@@H]3CCc4ccccc43)ccc12", "melting point": "150 °C"}
{"Compound": "COC(=O)[C@H](Cc1ccc(NC(=S)NCCN2CCOCC2)cc1)NC(=O)[C@@H]1CCCN1S(=O)(=O)c1ccc(C)cc1", "melting point": "158 to 168 °C"}
{"Compound": "CNc1nc(-c2ccc3c(c2)NC(=O)CO3)c(-c2ccccc2)s1", "melting point": "236 to 248 °C"}
{"Compound": "COC(=O)C1=Cc2cc(-c3ccc4c(c3)OCO4)ccc2SCC1", "melting point": "126 to 129 °C"}
{"Compound": "Cc1cn2nc(SCc3ccccc3)nc2nc1C", "melting point": "147 to 149 °C"}
{"Compound": "CN(c1cccc2cc(C3=NCC(C)(CN)S3)[nH]c12)S(=O)(=O)c1cccs1 (centres undefined)", "melting point": "164 to 165 °C"}
{"Compound": "NC(=O)N/N=C(/C(=O)O)c1ccc(OCCOc2ccc3ccccc3c2)cc1", "melting point": "204 °C"}
{"Compound": "Cc1cc(F)ccc1-c1nc(NCC(F)(F)F)nc2c1ccc(=O)n2-c1ccccc1F", "melting point": "187 to 188 °C"}
{"Compound": "COC(=O)c1cc(OC)c(C)c2c1Oc1c(C=O)c(O)cc(C)c1C(=O)O2", "melting point": "264 to 265 °C"}
{"Compound": "O=C(N[C@@H](Cc1ccc(C(=O)c2ccccc2)cc1)C(=O)O)OCC1c2ccccc2-c2ccccc21", "melting point": "115 to 117 °C"}
{"Compound": "O=[N+]([O-])c1ccc(Oc2cc(Cl)c(Cl)cc2Cl)c(Cl)c1Oc1ccccc1", "melting point": "112 °C"}
{"Compound": "Nc1ccc([C@@H](O)CNC[C@H]2CCc3cc(NS(=O)(=O)c4ccc(-n5nnn(CCCC6CCCCC6)c5=O)cc4)ccc3O2)cn1", "melting point": "94 to 95 °C"}
{"Compound": "Cc1ccc(CCCNC(=O)Cc2ccc(OCCN)c([N+](=O)[O-])c2)cc1C", "melting point": "98 °C"}
{"Compound": "CCOc1c(C(=O)c2ccccc2)cnc2c1cnn2Cc1ccco1", "melting point": "70 °C"}

Origin of measurements: a melting point compilation (Tetko et al.; mined from patent text by program, amines drawn as free bases though some values may be those of a salt)
